tested on: S. aureus; experiment: Synergy/antagonism two-drug combination assay, S. aureus; format: cell-based, Staphylococcus aureus; conditions: Staphylococcus aureus, 24 h, read-out: MIC antibiotic
Readout name: MIC
Please report the result as a number followed by the unit.

Check out these entries, answers already filled in.
[[record]]
compound = "CN[C@@H]1[C@H](O)[C@H](NC)[C@H]2O[C@@]3(O)C(=O)C[C@@H](C)O[C@H]3O[C@@H]2[C@H]1O"
result = "40 µg/mL"

[[record]]
compound = "CC1(C)S[C@@H]2[C@H](NC(=O)C(C(=O)O)c3ccccc3)C(=O)N2[C@H]1C(=O)O (stereo partly shown)"
result = "15 µg/mL"

[[record]]
compound = "COc1cc(Cc2cnc(N)nc2N)cc(OC)c1OC"
result = "15 µg/mL"

[[record]]
compound = "C[C@@H]1O[C@@H]1P(=O)(O)O"
result = "200 µg/mL"


query: Tell me MIC reported for `CO/N=C(\C(=O)N[C@@H]1C(=O)N2C(C(=O)O)=C(COC(C)=O)CS[C@H]12)c1csc(N)n1`
result: 2 µg/mL

###

tested on: S. aureus; assay: Synergy/antagonism two-drug combination assay, S. aureus; type: cell-based, Staphylococcus aureus; conditions: Staphylococcus aureus, 24 h, read-out: MIC antibiotic
Readout name: MIC (µg/mL)
Report the figure in µg/mL without appending any unit label.

Below: 4 molecules and their reported MIC.
[[record]]
molecule = "CN[C@H](CC(C)C)C(=O)N[C@H]1C(=O)N[C@@H](CC(N)=O)C(=O)N[C@H]2C(=O)N[C@H]3C(=O)N[C@H](C(=O)N[C@H](C(=O)O)c4cc(O)cc(O)c4-c4cc3ccc4O)[C@H](O)c3ccc(c(Cl)c3)Oc3cc2cc(c3O[C@@H]2O[C@H](CO)[C@@H](O)[C@H](O)[C@H]2O[C@H]2C[C@](C)(N)[C@H](O)[C@H](C)O2)Oc2ccc(cc2Cl)[C@H]1O [Vancomycin, vancomycin]"
value_units = "µg/mL"
result_number = 1.5

[[record]]
molecule = "CN(C)[C@@H]1C(O)=C(C(N)=O)C(=O)[C@@]2(O)C(O)=C3C(=O)c4c(O)cccc4[C@@](C)(O)[C@H]3C[C@@H]12 [Tetracycline, tetracycline]"
value_units = "µg/mL"
result_number = 0.5

[[record]]
molecule = "O=C(N[C@H](CO)[C@H](O)c1ccc([N+](=O)[O-])cc1)C(Cl)Cl [Chloramphenicol, chloramphenicol]"
value_units = "µg/mL"
result_number = 5

[[record]]
molecule = "CC1(C)S[C@@H]2[C@H](NC(=O)[C@H](N)c3ccccc3)C(=O)N2[C@H]1C(=O)O [Ampicillin, ampicillin]"
value_units = "µg/mL"
result_number = 0.5


query: Look up and report measured MIC (S. aureus) for the following molecule: Cc1cc(NS(=O)(=O)c2ccc(N)cc2)no1 [Sulfamethoxazole, sulfamethoxazole]
result: 200
